Data origin: the supplement of paper PMC10567573

B1: PKD2L1 (parent)
chain: SGPEAARAGGWVSGEEFYMLTRRV

variants of: B1; assay: protein stability index of a GFP-peptide fusion (GPS, HEK-293T) (PSI 1-6); higher = more stable; settings: c terminus: a fixed tail appended;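 further: lentivirally expressed fusions sorted by FACS into six bins by GFP to DsRed ratio, PSI derived from sequencing read proportions per bin multiplied by bin number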
observation-type: protein stability index

Input line: protein stability index lookup needed for A6P , thanks.
Output line: 2.21

Input line: Give its protein stability index value. Item: G2R
Output line: 2.24

Input line: Bench note: what protein stability index did P3S show?
Output line: 2.02

Input line: Which protein stability index value belongs to E16G ?
Output line: 2.6

Input line: // query protein stability index value for entry R22E
Output line: 3.26

Input line: For the variant A5N , what protein stability index is on record?
Output line: 2.18

Input line: Can you share its protein stability index? I mean this variant: A6Q
Output line: 2.13

Input line: Tell me the measured protein stability index of T21N , please.
Output line: 2.9

Input line: Name the reported protein stability index value associated with the variant A6N
Output line: 2.85

Input line: Which protein stability index reading was recorded for the variant M19L ?
Output line: 3.28

Input line: Sample V24C — what was its protein stability index?
Output line: 2.08

Input line: Reported protein stability index for R7Q : what is it?
Output line: 3.04

Input line: Need protein stability index, item T21S
Output line: 2.62

Input line: Look at this variant and give its reported protein stability index. A5D
Output line: 2.71

Input line: What value of protein stability index has been reported for the following variant? E16C
Output line: 1.56

Input line: I have this variant here, G14Q , and I need its recorded protein stability index.
Output line: 2.57

Input line: // query protein stability index value for entry E15W
Output line: 1.99

Input line: Item under review: M19G . Reported protein stability index?
Output line: 3.03

Input line: Value lookup for protein stability index; key = G14R
Output line: 3.17

Input line: What value of measured protein stability index is listed for W11A ?
Output line: 3.56
